system: Plasmodium falciparum; assay: Screen against P. falciparum Asexual Blood Stage (ABS), at 5uM; type: functional, Dd2; details: tested at 5 uM
Hit rate of the full screen: of about 65,000 compounds, about 2,100 (3.2%) showed an effect of 50% or more. The median lay at about -52%. Many of the other results were omitted from the sample, so strong results are more common in it than they were.
Parameter INHIBITION: see the listing below.
Quick reminder: number only, in %, skip the unit.

Some compounds with known INHIBITION results, for comparison:
O=C(O)c1cc(S(=O)(=O)Nc2ccc(F)cc2F)cc2c1OCCO2: -20.9
COCCN(Cc1ccccn1)Cc1sccc1C: -158

Exam item: For the compound "Cn1ccnc1CN1CCC2(CC1)CN(Cc1cccnc1)C(=O)CO2" , what INHIBITION is on record?
Marked response: -38.8

Exam item: Likewise for N#Cc1cccc(OCCN2CCCC2C(=O)NC2CC2)c1 (centres undefined) ?
Marked response: -14.2

From: ChEMBL document CHEMBL4513216
